- experiment: In vivo pharmacokinetic properties (Table 7)
- condition.details: mouse, in vivo; PO (10 mg/kg)
experimental.readout: half-life (h)
The figure you give is taken to be in h; do not add the unit.

Lab note: FC(F)(F)c1cc2c(NC3CCCc4ccccc43)ncnc2[nH]1 (stereo not shown) [Compound 15] gave half-life of 2

----------
- Test system: HeLa MKYP cells
- experiment: Human mitophagy assay (HeLa MKYP, mtKeima FACS, FCCP/oligomycin)
- Type: cell-based
- condition.details: Table 3; read-out: Potency at 1 μM F/O toxin* (EC50 of mitophagy activation)
pEC50: −log10 of the molar value.
Parameter threshold = 6. Response is YES when pEC50 meets or exceeds it, else NO.

For orientation, consider the following solved cases.
molecule | class.assignment
COc1ccc2c(c1)[C@@H](Nc1ncnc3[nH]c(C(F)(F)F)cc13)CCC2 [Compound 87] | NO
CN1CC[C@H](Nc2ncnc3[nH]c(C(F)(F)F)cc23)c2ccccc21 | NO
C[C@@H](Nc1ncnc2[nH]cnc12)c1ccccc1 | NO
C[C@H]1CCc2ccccc2[C@@H]1Nc1ncnc2[nH]c(C(F)(F)F)cc12 | YES
C[C@H]1CCc2ccccc2[C@H]1Nc1ncnc2[nH]c(C(F)(F)F)cc12 [Compound 101] | NO

Now look at this one.
Quick check, pEC50 >= 6? COc1ccc2c(c1)[C@@H](Nc1ncnc3[nH]c(C(F)(F)F)cc13)CCC2 [Compound 86]
NO

----------
- experiment: Visual inspection of crystallization
- Assay type: physicochemical
- Design: key: 1: yes crystals; 0: no crystals
- condition.details: 1.6 μM; Tables 5A-5D
Each item that follows carries a reported Visual inspection of crystallization.
Keep the answer to the number alone.

The compound C[C@@H](Nc1ncnc2[nH]c(C(F)(F)F)cc12)c1cncnc1 showed Visual inspection of crystallization equal to 0

Noted for C[C@H](Nc1ncnc2[nH]cnc12)c1ccccc1 : its Visual inspection of crystallization reads 0

Visual inspection of crystallization recorded for this compound, CCC(Nc1ncnc2[nH]c(C(F)(F)F)cc12)c1cncnc1 (stereo not shown) , is 0

Form field Visual inspection of crystallization, entry CC(Nc1ncnc2[nH]c(C3CC3)nc12)c1ccccc1 (stereo not shown) : 0

// Visual inspection of crystallization value for CCCCNc1ncnc2[nH]c(C(F)(F)F)c(C)c12 : 0

Please fill in: Visual inspection of crystallization reported for CN(C)C1CCC(CNc2ncnc3[nH]c(C(F)(F)F)cc23)CC1 (stereo not shown) = 0

Kindly note the recorded Visual inspection of crystallization for c1coc(CNc2ncnc3[nH]cnc23)c1 [kinetin, reference compound] , which is 0

----------
- System: HeLa MKYP cells
- experiment: Toxicity / cell death measured by DAPI staining (take-up)
- Type: cell-based
- condition.details: Table 3; 50 μM
Below, each entry is listed alongside its reported Toxicity (% positive for DAPI takeup @ 50 μM).
Numbers only here, please. The scale is %.

Here is how some molecules turned out for Toxicity (% positive for DAPI takeup @ 50 μM).
molecule | unit.of.measurement | observed.value
OC[C@@H](Nc1ncnc2[nH]c(C(F)(F)F)cc12)c1ccccc1 [Compound 77] | % | 30.3
CN1CC[C@H](Nc2ncnc3[nH]c(C(F)(F)F)cc23)c2ccccc21 [Compound 81] | % | 59.0
c1ccc2c(c1)OCC2Nc1ncnc2[nH]cnc12 (stereo not drawn) [Compound 53] | % | 21.0
CC(=O)N1CCC(Nc2ncnc3[nH]c(C(F)(F)F)cc23)c2ccccc21 (stereo not drawn) [Compound 93] | % | 6.9
FC(F)(F)c1cc2c(N[C@H]3CCOc4ccccc43)ncnc2[nH]1 [Compound 42] | % | 37.7
C[C@@H](Nc1ncnc2[nH]c(C3CC3)nc12)c1ccccc1 [Compound 47] | % | 12.3

Toxicity (% positive for DAPI takeup @ 50 μM) reported for this molecule CO[C@H]1COc2ccccc2[C@H]1Nc1ncnc2[nH]c(C(F)(F)F)cc12 [Compound 99] : 3.6

So, CCCCNc1ncnc2c1cc(C(F)(F)F)n2C(C)=O [Compound 69] ? Its Toxicity (% positive for DAPI takeup @ 50 μM) was 36.6

# Toxicity (% positive for DAPI takeup @ 50 μM) (molecule: C[C@@H](Nc1ncnc2[nH]cnc12)c1ccccc1 [Compound 52] ) is 10.1
